Test system: MDA-MB-468 breast
Test: NCI tumour cell line growth inhibition, 48 h
Each entry gets False if its TGI stays under 6 µM, and True if its TGI is 6 µM or above.

These solved cases illustrate the format of a correct answer.
{"SMILES REPRESENTATION": "Cn1cc(-c2cc(N)n3nc(-c4cn(C)c5ccccc45)cc3n2)c2cc(Br)ccc21", "CLASS LABEL": "False"}
{"SMILES REPRESENTATION": "CCCCCCNC(=O)Oc1ccc(/C(=C(/C)Cc2ccc(OC)cc2)c2ccc(OCCN(C)C)cc2)cc1", "CLASS LABEL": "True"}
{"SMILES REPRESENTATION": "CC1(C)[C@@H](OC(N)=O)C=C[C@]2(CO)[C@H]3CC[C@]4(C)[C@@H](c5ccc(=O)oc5)[C@@H](Cl)C[C@]4(O)C3=CC[C@@H]12", "CLASS LABEL": "False"}

Req: Is TGI at least 6 µM? Consider COc1cc2c(c(OC)c1OC)-c1ccc(O)c(=O)cc1[C@@H](NC(C)=O)CC2
Resp: True

Req: How about this molecule: Cn1cc(C2=C(c3cn(C)c4cc(N)ccc34)C(=O)NC2=O)c2ccccc21
Resp: True

Req: How about this molecule: N=c1ccc2nc3c(cc(N)c4ccccc43)oc-2c1
Resp: False

Req: How about this molecule: CC[C@]1(O)C[C@@H]2CN(CCc3c([nH]c4ccccc34)[C@@](C(=O)OC)(c3cc4c(cc3OC)N(C)[C@H]3[C@@](O)(C(N)=O)[C@H](O)[C@]5(CC)[C@@H]6C[C@@H]6CN6CC[C@]43[C@@H]65)C2)C1
Resp: False

Req: How about this molecule: CCCCCCNC(=O)n1cc(F)c(=O)[nH]c1=O
Resp: True
